Data origin: the RNAGym collection of RNA variant scans (doi:10.1021/acssynbio.7b00057)

B1: Pistol ribozyme (parent)
chain: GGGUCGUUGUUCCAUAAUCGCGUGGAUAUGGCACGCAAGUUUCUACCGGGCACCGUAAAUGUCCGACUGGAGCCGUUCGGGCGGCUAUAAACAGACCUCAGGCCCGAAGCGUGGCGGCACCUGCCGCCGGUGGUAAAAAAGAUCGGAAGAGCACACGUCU

Variants of: B1
assay explanation: aptazyme ON/OFF ratio, guanine; higher = stronger switching; co-transcriptional cleavage with and without guanine
# aptazyme ON/OFF ratio listing for each entry below

Some variants with known aptazyme ON/OFF ratio results, for comparison:
>>> df
                 mutant_label      measurement_label  assay_value
0           U8A G9A C12A C13U  aptazyme ON/OFF ratio         1.19
1          G9A U11A C12A C13G  aptazyme ON/OFF ratio         1.29
2  U7C U8C G9A U11G C12U C13A  aptazyme ON/OFF ratio         1.22

Query: // lookup aptazyme ON/OFF ratio for U7G G9U U10C U11A C12G C13U
Result: 1.26

Query: Can you check U7C U8C U10G U11G C12A next?
Result: 1.26
